ASSAYED_SYSTEM: STAT1 (Homo sapiens)
Construct: full-length STAT1 (Uniprot #P42224-1) was expressed in E. coli; His tag (pEXP-NHis vector) (N); made in house; host or cells: E. coli T7 Express
ASSAY_DETAILS: Grating-coupled interferometry (GCI) waveRAPID kinetics, immobilised full-length STAT1
Assay type: binding
ASSAY_CONTEXT: analyte 0.5 µM; replicate 1 (first listed run, Table S2); read-out: ka
OUTCOME_MEASURE: kon at 0.5 µM (M⁻¹ s⁻¹)
Please reply with the bare figure in M⁻¹ s⁻¹ and do not write the unit itself.

Enquiry: Check the records and state kon at 0.5 µM for CC[C@H](C)[C@H](NC(=O)[C@H](Cc1ccccc1)NC(=O)[C@@H](NC(=O)[C@H](CS)NC(=O)[C@H](Cc1c[nH]c2ccccc12)NC(=O)[C@H](CCSC)NC(C)=O)C(C)C)C(=O)N[C@@H](Cc1c[nH]cn1)C(=O)NCC(=O)N[C@@H](Cc1c[nH]cn1)C(=O)N[C@@H](CC(=O)O)C(=O)NCC(=O)N[C@@H](CO)C(=O)N[C@@H](CC(N)=O)C(=O)N[C@@H](CCCCN)C(=O)NCC(=O)N[C@@H](CO)C(=O)N[C@@H](CCCCN)C(=O)N[C@@H](CS)C(=O)N[C@@H](Cc1ccc(O)cc1)C(=O)N[C@H](C(N)=O)[C@@H](C)O [Peptide 5]
Return: 351000

Enquiry: Check the records and state kon at 0.5 µM for CC[C@H](C)[C@H](NC(=O)[C@H](Cc1ccccc1)NC(=O)[C@@H](NC(=O)[C@H](CO)NC(=O)[C@H](Cc1c[nH]c2ccccc12)NC(=O)[C@H](CCSC)NC(C)=O)C(C)C)C(=O)N[C@@H](Cc1c[nH]cn1)C(=O)NCC(=O)N[C@@H](Cc1c[nH]cn1)C(=O)N[C@@H](CC(=O)O)C(=O)NCC(=O)N[C@@H](CO)C(=O)N[C@@H](CC(N)=O)C(=O)N[C@@H](CCCCN)C(=O)NCC(=O)N[C@@H](CO)C(=O)N[C@@H](CCCCN)C(=O)N[C@H](C(=O)N[C@@H](Cc1ccc(O)cc1)C(=O)N[C@H](C(N)=O)[C@@H](C)O)[C@@H](C)O [Peptide 1]
Return: 241000

Enquiry: Check the records and state kon at 0.5 µM for CC[C@H](C)[C@@H]1NC(=O)[C@H](Cc2ccccc2)NC(=O)[C@H](C(C)C)NC(=O)[C@@H](NC(=O)[C@H](Cc2c[nH]c3ccccc23)NC(=O)[C@H](CCSC)NC(C)=O)CSCc2ccccc2CSC[C@@H](C(=O)N[C@@H](Cc2ccc(O)cc2)C(=O)N[C@H](C(N)=O)[C@@H](C)O)NC(=O)[C@H](CCCCN)NC(=O)[C@H](CO)NC(=O)CNC(=O)[C@H](CCCCN)NC(=O)[C@H](CC(N)=O)NC(=O)[C@H](CO)NC(=O)CNC(=O)[C@H](CC(=O)O)NC(=O)[C@H](Cc2c[nH]cn2)NC(=O)CNC(=O)[C@H](Cc2c[nH]cn2)NC1=O [Peptide 6]
Return: 377000

###

ASSAYED_SYSTEM: STAT1 (Homo sapiens)
Construct: full-length STAT1 (Uniprot #P42224-1) was expressed in E. coli; His tag (pEXP-NHis vector) (N); made in house; host or cells: E. coli T7 Express
ASSAY_DETAILS: Grating-coupled interferometry (GCI) waveRAPID kinetics, immobilised full-length STAT1
Assay type: binding
ASSAY_CONTEXT: 20 mM HEPES pH 7.5, 300 mM NaCl, 0.01% Tween-20; 1:1 kinetic model; average of 2–4 technical replicates ± SD; SD
OUTCOME_MEASURE: Kd

Enquiry: Jot down Kd (STAT1 (Homo sapiens)) of CC[C@H](C)[C@H](NC(=O)[C@H](Cc1ccccc1)NC(=O)[C@@H](NC(=O)[C@H](CO)NC(=O)[C@H](Cc1c[nH]c2ccccc12)NC(=O)[C@H](CCSC)NC(C)=O)C(C)C)C(=O)N[C@@H](Cc1c[nH]cn1)C(=O)NCC(=O)N[C@@H](Cc1c[nH]cn1)C(=O)N[C@@H](CC(=O)O)C(=O)NCC(=O)N[C@@H](CO)C(=O)N[C@@H](CC(N)=O)C(=O)N[C@@H](CCCCN)C(=O)NCC(=O)N[C@@H](CO)C(=O)N[C@@H](CCCCN)C(=O)N[C@H](C(=O)N[C@@H](Cc1ccc(O)cc1)C(=O)N[C@H](C(N)=O)[C@@H](C)O)[C@@H](C)O [Peptide 1] .
Return: 85.8 nM

Enquiry: Jot down Kd (STAT1 (Homo sapiens)) of CC[C@H](C)[C@@H]1NC(=O)[C@H](Cc2ccccc2)NC(=O)[C@H](C(C)C)NC(=O)[C@@H](NC(=O)[C@H](Cc2c[nH]c3ccccc23)NC(=O)[C@H](CCSC)NC(C)=O)CSCc2ccccc2CSC[C@@H](C(=O)N[C@@H](Cc2ccc(O)cc2)C(=O)N[C@H](C(N)=O)[C@@H](C)O)NC(=O)[C@H](CCCCN)NC(=O)[C@H](CO)NC(=O)CNC(=O)[C@H](CCCCN)NC(=O)[C@H](CC(N)=O)NC(=O)[C@H](CO)NC(=O)CNC(=O)[C@H](CC(=O)O)NC(=O)[C@H](Cc2c[nH]cn2)NC(=O)CNC(=O)[C@H](Cc2c[nH]cn2)NC1=O [Peptide 6] .
Return: 1.3 nM

Enquiry: Jot down Kd (STAT1 (Homo sapiens)) of CC[C@H](C)[C@@H]1NC(=O)[C@H](Cc2ccccc2)NC(=O)[C@H](C(C)C)NC(=O)[C@H](CO)NC(=O)[C@H](Cc2c[nH]c3ccccc23)NC(=O)[C@H](CCSC)NC(=O)CCNC(=O)CCNC(=O)[C@H]([C@@H](C)O)NC(=O)[C@H](Cc2ccc(O)cc2)NC(=O)[C@H]([C@@H](C)O)NC(=O)[C@H](CCCCN)NC(=O)[C@H](CO)NC(=O)CNC(=O)[C@H](CCCCN)NC(=O)[C@H](CC(N)=O)NC(=O)[C@H](CO)NC(=O)CNC(=O)[C@H](CC(=O)O)NC(=O)[C@H](Cc2c[nH]cn2)NC(=O)CNC(=O)[C@H](Cc2c[nH]cn2)NC1=O [Peptide 2] .
Return: 8.9 nM

Enquiry: Jot down Kd (STAT1 (Homo sapiens)) of CC[C@H](C)[C@H](NC(=O)[C@H](Cc1ccccc1)NC(=O)[C@@H](NC(=O)[C@H](CS)NC(=O)[C@H](Cc1c[nH]c2ccccc12)NC(=O)[C@H](CCSC)NC(C)=O)C(C)C)C(=O)N[C@@H](Cc1c[nH]cn1)C(=O)NCC(=O)N[C@@H](Cc1c[nH]cn1)C(=O)N[C@@H](CC(=O)O)C(=O)NCC(=O)N[C@@H](CO)C(=O)N[C@@H](CC(N)=O)C(=O)N[C@@H](CCCCN)C(=O)NCC(=O)N[C@@H](CO)C(=O)N[C@@H](CCCCN)C(=O)N[C@@H](CS)C(=O)N[C@@H](Cc1ccc(O)cc1)C(=O)N[C@H](C(N)=O)[C@@H](C)O [Peptide 5] .
Return: 31.9 nM

###

ASSAYED_SYSTEM: STAT1 (Homo sapiens)
Construct: full-length STAT1 (Uniprot #P42224-1) was expressed in E. coli; His tag (pEXP-NHis vector) (N); made in house; host or cells: E. coli T7 Express
Sequence (P42224 1-750): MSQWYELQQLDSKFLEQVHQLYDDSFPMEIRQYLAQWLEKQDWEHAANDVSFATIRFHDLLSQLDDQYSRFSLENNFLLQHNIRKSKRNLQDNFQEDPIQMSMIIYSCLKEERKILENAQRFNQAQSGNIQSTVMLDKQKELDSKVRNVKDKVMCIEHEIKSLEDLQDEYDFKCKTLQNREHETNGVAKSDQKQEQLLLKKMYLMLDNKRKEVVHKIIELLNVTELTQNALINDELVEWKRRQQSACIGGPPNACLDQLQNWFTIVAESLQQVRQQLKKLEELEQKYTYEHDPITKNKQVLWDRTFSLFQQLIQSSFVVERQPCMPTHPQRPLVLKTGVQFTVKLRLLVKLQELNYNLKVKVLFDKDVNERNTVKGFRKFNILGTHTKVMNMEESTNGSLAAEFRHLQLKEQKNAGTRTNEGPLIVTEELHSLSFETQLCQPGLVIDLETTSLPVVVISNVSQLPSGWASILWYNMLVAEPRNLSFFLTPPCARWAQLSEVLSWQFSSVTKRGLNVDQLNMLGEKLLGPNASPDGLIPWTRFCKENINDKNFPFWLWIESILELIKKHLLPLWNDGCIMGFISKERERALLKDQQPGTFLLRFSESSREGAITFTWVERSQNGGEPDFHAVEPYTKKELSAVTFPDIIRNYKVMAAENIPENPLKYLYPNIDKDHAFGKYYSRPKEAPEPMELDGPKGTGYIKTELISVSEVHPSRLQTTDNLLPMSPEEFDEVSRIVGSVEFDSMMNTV
ASSAY_DETAILS: Grating-coupled interferometry (GCI) waveRAPID kinetics, immobilised full-length STAT1
Format: binding
ASSAY_CONTEXT: analyte 0.5 µM; replicate 1 (first listed run, Table S2); read-out: ka
OUTCOME_MEASURE: kon at 0.5 µM (M⁻¹ s⁻¹)
Please reply with the bare figure in M⁻¹ s⁻¹ and do not write the unit itself.

Enquiry: Jot down kon at 0.5 µM (STAT1 (Homo sapiens)) of CC[C@H](C)[C@@H]1NC(=O)[C@H](Cc2ccccc2)NC(=O)[C@H](C(C)C)NC(=O)[C@H](CO)NC(=O)[C@H](Cc2c[nH]c3ccccc23)NC(=O)[C@H](CCSC)NC(=O)CCNC(=O)CCNC(=O)[C@H]([C@@H](C)O)NC(=O)[C@H](Cc2ccc(O)cc2)NC(=O)[C@H]([C@@H](C)O)NC(=O)[C@H](CCCCN)NC(=O)[C@H](CO)NC(=O)CNC(=O)[C@H](CCCCN)NC(=O)[C@H](CC(N)=O)NC(=O)[C@H](CO)NC(=O)CNC(=O)[C@H](CC(=O)O)NC(=O)[C@H](Cc2c[nH]cn2)NC(=O)CNC(=O)[C@H](Cc2c[nH]cn2)NC1=O [Peptide 2] .
Return: 216000
